measurement label: melting point

Some molecules with recorded melting point:
- given smiles: "CN(C)c1ccc(-c2ccccc2)cc1/C=C/C(=O)CC(=O)/C=C/c1ccc(O)cc1"
  melting point: "82 to 88 °C"
- given smiles: "COc1cc(O)ccc1/C=C/C(=O)CC(=O)CCc1ccc(O)cc1"
  melting point: "131 to 135 °C"
- given smiles: "COc1cc(/C=C/C(=O)CC(=O)/C=C/c2cn(Cc3ccccc3)c3ccccc23)ccc1O"
  melting point: "158 to 161 °C"
- given smiles: "COc1ccc(/C=C/C(=O)CC(=O)/C=C/c2ccc(OC)c(O)c2)cc1"
  melting point: "137 to 140 °C"

Field request: melting point | item: O=C(/C=C/c1ccc(O)cc1)CC(=O)/C=C/c1cc(OCc2ccccc2)ccc1-c1ccccc1
172 to 178 °C

Field request: melting point | item: COc1cc(/C=C/C(=O)CC(=O)/C=C/c2ccc(O)c(OC)c2)cc(OC)c1
50 to 55 °C

Field request: melting point | item: O=C(/C=C/c1cc(O)ccc1[N+](=O)[O-])CC(=O)CCc1ccc(O)cc1
62 to 70 °C

Field request: melting point | item: COc1cc(/C=C/C(=O)CC(=O)/C=C/c2ccc(O)cc2)cc(OC)c1
75 to 80 °C

Field request: melting point | item: O=C(/C=C/c1cc(O)ccc1[N+](=O)[O-])CC(=O)/C=C/c1cc(O)ccc1[N+](=O)[O-]
253 to 262 °C

Field request: melting point | item: O=C(/C=C/c1ccc(O)cc1)CC(=O)/C=C/c1ccc(O)c([N+](=O)[O-])c1
240 to 245 °C

Field request: melting point | item: COc1cc(/C=C/C(=O)CC(=O)/C=C/c2cc(O)ccc2[N+](=O)[O-])ccc1O
147 to 152 °C

Field request: melting point | item: COc1ccc(/C=C/C(=O)CC(=O)/C=C/c2cccnc2)cc1O
174 to 175 °C

Field request: melting point | item: COc1ccc(/C=C/C(=O)CC(=O)/C=C/c2c[nH]c3cccc([N+](=O)[O-])c23)cc1O
226 to 233 °C

Field request: melting point | item: O=C(/C=C/c1ccc(O)cc1)CC(=O)/C=C/c1cccc2ncccc12
272 to 275 °C

---

# melting point values compiled below

- given smiles: "O=C(/C=C/c1ccc(O)cc1)CC(=O)/C=C/c1ccc2ccccc2c1"
  melting point: "225 to 230 °C"
- given smiles: "CCN(CC)c1ccc(/C=C/C(=O)CC(=O)/C=C/c2ccc(N(CC)CC)cc2OC(C)C)c(OC(C)C)c1"
  melting point: "63 to 66 °C"
- given smiles: "CN(C)c1ccc(/C=C/C(=O)CC(=O)/C=C/c2ccc(N(C)C)cc2Cl)c(Cl)c1"
  melting point: "238 to 241 °C"
- given smiles: "COc1ccc(/C=C/C(=O)CC(=O)/C=C/c2ccc(O)cc2OC)cc1O"
  melting point: "90 to 95 °C"
- given smiles: "COc1ccc(/C=C/C(=O)CC(=O)/C=C/c2ccc(N(C)C)c(OC)c2)cc1O"
  melting point: "65 to 70 °C"

Field request: melting point | item: O=C(/C=C/c1ccc(O)cc1)CC(=O)/C=C/c1c[nH]c2cccc([N+](=O)[O-])c12
228 to 232 °C

Field request: melting point | item: CCN(CC)c1ccc(/C=C/C(=O)CC(=O)/C=C/c2ccc(O)cc2)c(OCc2cccnc2)c1
180 to 186 °C

Field request: melting point | item: COCOc1ccc(OC)cc1/C=C/C(=O)CC(=O)/C=C/c1cc(OC)ccc1OCOC
140 to 143 °C

---

# melting point values compiled below

Some compounds with recorded melting point:
- compound: "COc1cc(/C=C/C(=O)CC(=O)/C=C/c2ccc(O)cc2)ccc1N(C)C [CU048]"
  melting point: "84 to 86 °C"
- compound: "CS(=O)(=O)c1ccc(/C=C/C(=O)CC(=O)/C=C/c2ccc(O)cc2)cc1 [CU203]"
  melting point: "221 to 224 °C"
- compound: "O=C(/C=C/c1ccc(O)cc1)CC(=O)/C=C/c1ccccc1-c1ccccc1 [CU472]"
  melting point: "180 to 188 °C"
- compound: "COc1cc(/C=C/C(=O)CC(=O)/C=C/c2ccc(OCCCN(C)C)cc2)ccc1O [CU018]"
  melting point: "155 to 159 °C"
- compound: "O=C(/C=C/c1cn(Cc2ccccc2)c2ccccc12)CC(=O)/C=C/c1cn(Cc2ccccc2)c2ccccc12 [CU397]"
  melting point: "206 to 213 °C"
- compound: "COc1ccc(/C=C/C(=O)CC(=O)/C=C/c2ccc(O)cc2)c(OC)c1 [CU072]"
  melting point: "161 to 167 °C"

Field request: melting point | item: COc1cc(/C=C/C(=O)CC(=O)/C=C/c2ccc(O)c([N+](=O)[O-])c2)ccc1O [CU040]
209 to 213 °C

Field request: melting point | item: COc1cc(=O)oc2ccc(/C=C/C(=O)CC(=O)/C=C/c3ccc(O)cc3)cc12 [CU415]
250 to 254 °C

Field request: melting point | item: COc1ccc(/C=C/C(=O)CC(=O)/C=C/c2ncc[nH]2)cc1O [CU151]
219 to 221 °C

---

# melting point values compiled below

Some molecules with recorded melting point:
- given smiles: "Cc1ccc(-n2cccc2/C=C/C(=O)CC(=O)/C=C/c2ccc(O)cc2)cc1"
  melting point: "144 to 150 °C"
- given smiles: "COc1cccc(/C=C/C(=O)CC(=O)/C=C/c2ccc(O)cc2)c1OC"
  melting point: "70 to 72 °C"

Field request: melting point | item: COc1ccc(/C=C/C(=O)CC(=O)/C=C/c2ccc(O)c(OC)c2)c(OC)c1
108 to 113 °C

Field request: melting point | item: COc1ccc(/C=C/C(=O)CC(=O)/C=C/c2ccc(O)cc2)c(O)c1
137 to 139 °C

Field request: melting point | item: COc1ccc(/C=C/C(=O)CC(=O)/C=C/c2ccc(N(C)C)cc2Cl)cc1O
160 to 164 °C

Field request: melting point | item: COc1cc(/C=C/C(=O)CC(=O)/C=C/c2ccc[nH]2)ccc1O
83 to 87 °C

Field request: melting point | item: Cc1ccc(S(=O)(=O)n2cc(/C=C/C(=O)CC(=O)/C=C/c3ccc(O)cc3)c3ccccc32)cc1
218 to 222 °C

---

# melting point values compiled below

Some compounds with recorded melting point:
- compound: "CN(C)c1ccc(/C=C/C(=O)CC(=O)/C=C/c2ccc(O)cc2)c([N+](=O)[O-])c1 [CU194]"
  measurement label: "melting point"
  experimental value: "217 to 222 °C"
- compound: "COc1ccc(/C=C/C(=O)CC(=O)/C=C/c2ccc(SC)cc2)cc1O [CU216]"
  measurement label: "melting point"
  experimental value: "158 to 162 °C"
- compound: "CS(=O)(=O)n1cc(/C=C/C(=O)CC(=O)/C=C/c2ccc(O)cc2)c2ccccc21 [CU401]"
  measurement label: "melting point"
  experimental value: "196 to 200 °C"
- compound: "O=C(/C=C/c1ccc(O)cc1)CC(=O)/C=C/c1ccccc1N1CCCCC1 [CU497]"
  measurement label: "melting point"
  experimental value: "77 to 84 °C"
- compound: "N[C@H](Cc1ccccc1)C(=O)Nc1ccc(/C=C/C(=O)CC(=O)/C=C/c2ccc(O)cc2)cc1 [CU423]"
  measurement label: "melting point"
  experimental value: "161 to 167 °C"

Field request: melting point | item: COc1cc(/C=C/C(=O)CC(=O)/C=C/c2ccc(OC)c3ccccc23)ccc1O [CU118]
193 to 196 °C

Field request: melting point | item: O=C(/C=C/c1ccc(O)cc1)CC(=O)/C=C/c1ccccc1CO [CU424]
173 to 180 °C

---

# melting point values compiled below

Field request: melting point | item: COc1cccc(/C=C/C(=O)CC(=O)/C=C/c2ccc(O)cc2)c1O [CU249]
169 to 175 °C

Field request: melting point | item: COc1cc(/C=C/C(=O)CC(=O)/C=C/c2c[nH]c3cccc([N+](=O)[O-])c23)ccc1O [CU462]
232 to 237 °C

---

# melting point values compiled below

- given smiles: "COc1ccc(/C=C/C(=O)CC(=O)/C=C/c2cc(Cl)ccc2Cl)cc1O"
  measurement label: "melting point"
  experimental value: "140 to 146 °C"

Field request: melting point | item: O=C(/C=C/c1cccc2ncccc12)CC(=O)/C=C/c1cccc2ncccc12
170 to 174 °C

Field request: melting point | item: O=C(/C=C/c1cccnc1N1CCOCC1)CC(=O)/C=C/c1cccnc1N1CCOCC1
192 to 195 °C

---

# target under test: recombinant human β-secretase (rhBACE-1) (Homo sapiens (Human), UniProt P56817)
# Sequence (P56817 46-501): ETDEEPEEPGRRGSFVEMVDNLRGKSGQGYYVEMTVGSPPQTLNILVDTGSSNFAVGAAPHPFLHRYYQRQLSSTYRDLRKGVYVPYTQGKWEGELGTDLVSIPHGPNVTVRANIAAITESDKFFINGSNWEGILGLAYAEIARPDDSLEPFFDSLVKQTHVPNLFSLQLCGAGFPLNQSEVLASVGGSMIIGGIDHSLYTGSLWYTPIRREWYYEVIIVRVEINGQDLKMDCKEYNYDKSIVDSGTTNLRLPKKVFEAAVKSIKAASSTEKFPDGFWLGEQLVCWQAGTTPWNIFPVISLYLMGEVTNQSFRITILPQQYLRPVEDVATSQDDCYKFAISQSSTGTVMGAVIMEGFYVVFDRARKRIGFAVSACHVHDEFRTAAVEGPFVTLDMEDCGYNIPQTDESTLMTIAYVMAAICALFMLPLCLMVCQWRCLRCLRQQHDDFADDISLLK
# protocol summary: β-Secretase enzyme inhibition assay (Test Example 1)
# Assay type: biochemical
# condition details: compound solution 3 μM (FIG. 1 legend: 1.0 μM), 37° C., 2 hr, fluorescent substrate peptide
measurement label: inhibition of BACE-1 enzyme activity (inhibitory activities (%) shown in FIG. 1)

Some compounds with recorded inhibition of BACE-1 enzyme activity (inhibitory activities (%) shown in FIG. 1):
- compound: "COc1ccc(/C=C/C(=O)CC(=O)/C=C/c2cccn2C)cc1O [CU122]"
  target under test: "recombinant human β-secretase (rhBACE-1) (Homo sapiens (Human), UniProt P56817)"
  experimental value: "strongly inhibited"
- compound: "COc1ccc(/C=C/C(=O)CC(=O)/C=C/c2cc(O)cc(O)c2)cc1O [CU094]"
  target under test: "recombinant human β-secretase (rhBACE-1) (Homo sapiens (Human), UniProt P56817)"
  experimental value: "strongly inhibited"
- compound: "Cn1cc(/C=C/C(=O)CC(=O)/C=C/c2ccc(O)cc2)cn1 [CU198]"
  target under test: "recombinant human β-secretase (rhBACE-1) (Homo sapiens (Human), UniProt P56817)"
  experimental value: "strongly inhibited"
- compound: "O=C(/C=C/c1ccc(O)cc1)CC(=O)/C=C/c1ccc2cc[nH]c2c1 [CU189]"
  target under test: "recombinant human β-secretase (rhBACE-1) (Homo sapiens (Human), UniProt P56817)"
  experimental value: "strongly inhibited"
- compound: "COc1ccc(/C=C/C(=O)CC(=O)/C=C/c2cccc(O)c2OC)cc1O [CU176]"
  target under test: "recombinant human β-secretase (rhBACE-1) (Homo sapiens (Human), UniProt P56817)"
  experimental value: "strongly inhibited"
- compound: "O=C(/C=C/c1ccc(O)cc1)CC(=O)/C=C/c1ccc2[nH]ccc2c1 [CU187]"
  target under test: "recombinant human β-secretase (rhBACE-1) (Homo sapiens (Human), UniProt P56817)"
  experimental value: "strongly inhibited"

Entry COc1ccc(/C=C/C(=O)CC(=O)/C=C/c2ccc(O)cc2)c2ccccc12 [CU116] , system recombinant human β-secretase (rhBACE-1) (Homo sapiens (Human), UniProt P56817): what inhibition of BACE-1 enzyme activity (inhibitory activities (%) shown in FIG. 1) was measured?
strongly inhibited

Entry O=C(/C=C/c1ccc(O)cc1)CC(=O)/C=C/c1ccc(O)c(F)c1 [CU030] , system recombinant human β-secretase (rhBACE-1) (Homo sapiens (Human), UniProt P56817): what inhibition of BACE-1 enzyme activity (inhibitory activities (%) shown in FIG. 1) was measured?
strongly inhibited

Entry COc1ccc(/C=C/C(=O)CC(=O)/C=C/c2ccc3[nH]ccc3c2)cc1O [CU193] , system recombinant human β-secretase (rhBACE-1) (Homo sapiens (Human), UniProt P56817): what inhibition of BACE-1 enzyme activity (inhibitory activities (%) shown in FIG. 1) was measured?
strongly inhibited

Entry O=C(/C=C/c1ccc(O)cc1)CC(=O)/C=C/c1c[nH]c2ccccc12 [CU110] , system recombinant human β-secretase (rhBACE-1) (Homo sapiens (Human), UniProt P56817): what inhibition of BACE-1 enzyme activity (inhibitory activities (%) shown in FIG. 1) was measured?
strongly inhibited

Entry CN(C)c1ccc(/C=C/C(=O)CC(=O)/C=C/c2ccc(O)cc2)c([N+](=O)[O-])c1 [CU194] , system recombinant human β-secretase (rhBACE-1) (Homo sapiens (Human), UniProt P56817): what inhibition of BACE-1 enzyme activity (inhibitory activities (%) shown in FIG. 1) was measured?
strongly inhibited

Entry COc1cc(/C=C/C(=O)CC(=O)/C=C/c2ccc3cc[nH]c3c2)ccc1O [CU190] , system recombinant human β-secretase (rhBACE-1) (Homo sapiens (Human), UniProt P56817): what inhibition of BACE-1 enzyme activity (inhibitory activities (%) shown in FIG. 1) was measured?
strongly inhibited

Entry COc1cc(/C=C/C(=O)CC(=O)/C=C/c2cccc(O)c2OC)ccc1O [CU001] , system recombinant human β-secretase (rhBACE-1) (Homo sapiens (Human), UniProt P56817): what inhibition of BACE-1 enzyme activity (inhibitory activities (%) shown in FIG. 1) was measured?
strongly inhibited

Entry COc1cc(/C=C/C(=O)CC(=O)/C=C/c2cccn2C)ccc1O [CU121] , system recombinant human β-secretase (rhBACE-1) (Homo sapiens (Human), UniProt P56817): what inhibition of BACE-1 enzyme activity (inhibitory activities (%) shown in FIG. 1) was measured?
strongly inhibited

Entry CCn1c2ccccc2c2cc(/C=C/C(=O)CC(=O)/C=C/c3ccc(O)c(OC)c3)ccc21 [CU017] , system recombinant human β-secretase (rhBACE-1) (Homo sapiens (Human), UniProt P56817): what inhibition of BACE-1 enzyme activity (inhibitory activities (%) shown in FIG. 1) was measured?
strongly inhibited

Entry COc1ccc(/C=C/C(=O)CC(=O)/C=C/c2c(OC)cccc2OC)cc1O [CU104] , system recombinant human β-secretase (rhBACE-1) (Homo sapiens (Human), UniProt P56817): what inhibition of BACE-1 enzyme activity (inhibitory activities (%) shown in FIG. 1) was measured?
strongly inhibited

Entry O=C(/C=C/c1ccc(O)cc1)CC(=O)/C=C/c1cccc2ccccc12 [CU112] , system recombinant human β-secretase (rhBACE-1) (Homo sapiens (Human), UniProt P56817): what inhibition of BACE-1 enzyme activity (inhibitory activities (%) shown in FIG. 1) was measured?
strongly inhibited

Entry COc1cc(/C=C/C(=O)CC(=O)/C=C/c2ccc(O)c(C)c2)ccc1O [CU031] , system recombinant human β-secretase (rhBACE-1) (Homo sapiens (Human), UniProt P56817): what inhibition of BACE-1 enzyme activity (inhibitory activities (%) shown in FIG. 1) was measured?
strongly inhibited
